- Tested on: d(TTGGGTT)4
- Protocol summary: NMR titration of ligands with G-quadruplex oligonucleotide
- Format: binding
- Experimental parameters: 1H NMR chemical shift difference of G-quadruplex peak T6H6/8 on ligand addition
Mark each entry y if its Difference from 7.23 ppm (ppm) T6H6/8 sits below 0.2 ppm, and n for all others.

Example entries begin here.
Prompt: Consider `C(=N\Cc1ccc2c(c1)OCO2)/c1c2ccccc2c(/C=N/Cc2ccc3c(c2)OCO3)c2ccccc12` . Does its Difference from 7.23 ppm (ppm) T6H6/8 lie strictly below 0.2 ppm?
Response: y

Prompt: Consider `Cc1cnc(/N=C/c2c3ccccc3c(/C=N/c3ncc(C)s3)c3ccccc23)s1` . Does its Difference from 7.23 ppm (ppm) T6H6/8 lie strictly below 0.2 ppm?
Response: y

Prompt: Consider `C(=N\CCCN1CCOCC1)/c1c2ccccc2c(/C=N/CCCN2CCOCC2)c2ccccc12` . Does its Difference from 7.23 ppm (ppm) T6H6/8 lie strictly below 0.2 ppm?
Response: n

Prompt: Consider `C(=N\CCc1c[nH]c2ccccc12)/c1c2ccccc2c(/C=N/CCc2c[nH]c3ccccc23)c2ccccc12` . Does its Difference from 7.23 ppm (ppm) T6H6/8 lie strictly below 0.2 ppm?
Response: y

Moving on to another molecule below.
Prompt: Consider `C(=N\CCN1CCCCC1)/c1c2ccccc2c(/C=N/CCN2CCCCC2)c2ccccc12` . Does its Difference from 7.23 ppm (ppm) T6H6/8 lie strictly below 0.2 ppm?
Response: y

====

Each entry below carries its reported Difference from 1.58 ppm (ppm) T6CH3.
- Test system: d(TTGGGTT)4
- Protocol summary: NMR titration of ligands with G-quadruplex oligonucleotide
- Format: binding
- Experimental parameters: 1H NMR chemical shift difference of G-quadruplex peak T6CH3 on ligand addition
Give the value, in units of ppm, as a plain number.

Prompt: What value of Difference from 1.58 ppm (ppm) T6CH3 has been reported for the following compound? `C(=N\CCc1c[nH]c2ccccc12)/c1c2ccccc2c(/C=N/CCc2c[nH]c3ccccc23)c2ccccc12`
Response: 0.157

---
Prompt: What value of Difference from 1.58 ppm (ppm) T6CH3 has been reported for the following compound? `C(=N\CCCN1CCOCC1)/c1c2ccccc2c(/C=N/CCCN2CCOCC2)c2ccccc12`
Response: 0.093

Prompt: What value of Difference from 1.58 ppm (ppm) T6CH3 has been reported for the following compound? `C(=N\CCN1CCCCC1)/c1c2ccccc2c(/C=N/CCN2CCCCC2)c2ccccc12`
Response: 0.094

Prompt: What value of Difference from 1.58 ppm (ppm) T6CH3 has been reported for the following compound? `Cc1cnc(/N=C/c2c3ccccc3c(/C=N/c3ncc(C)s3)c3ccccc23)s1`
Response: 0.146

Prompt: What value of Difference from 1.58 ppm (ppm) T6CH3 has been reported for the following compound? `C(=N\Cc1ccc2c(c1)OCO2)/c1c2ccccc2c(/C=N/Cc2ccc3c(c2)OCO3)c2ccccc12`
Response: 0.09

====

- Test system: d(TTGGGTT)4
- Protocol summary: NMR titration of ligands with G-quadruplex oligonucleotide
- Format: binding
- Experimental parameters: G quadruplex chemical shift difference
- Description: Compounds 2a–2e were evaluated for G-quadruplex interaction using NMR titration studies with d(TTGGGTT)4 with intercalation comparisons made against doxorubicin and nemorubicin (see ESI ^† S1). […] We also see the peaks for T6 (methyl, aromatic and ribose) shifting to a lower field in accord with the up-field shift of the G5 peaks. […] 14 min 44 sec). With this pulse sequence, all non-exchangeable protons are detected in the deuterated D2O/H2O buffer solution. […]
Where Δδ (ppm) equals or exceeds 0.2 ppm, the correct label is Fulfilled; where it does not, the label is Not fulfilled.

Example entries begin here.
Prompt: Entry `C(=N\CCc1c[nH]c2ccccc12)/c1c2ccccc2c(/C=N/CCc2c[nH]c3ccccc23)c2ccccc12` : is its Δδ (ppm) no less than 0.2 ppm?
Response: Fulfilled

Prompt: Entry `C(=N\CCCN1CCOCC1)/c1c2ccccc2c(/C=N/CCCN2CCOCC2)c2ccccc12` : is its Δδ (ppm) no less than 0.2 ppm?
Response: Fulfilled

Prompt: Entry `C(=N\CCN1CCCCC1)/c1c2ccccc2c(/C=N/CCN2CCCCC2)c2ccccc12` : is its Δδ (ppm) no less than 0.2 ppm?
Response: Not fulfilled

Moving on to another compound below.
Prompt: Entry `Cc1cnc(/N=C/c2c3ccccc3c(/C=N/c3ncc(C)s3)c3ccccc23)s1` : is its Δδ (ppm) no less than 0.2 ppm?
Response: Fulfilled
